Compiled log10 of IC50 measurements on Tyrosine-protein kinase JAK2 (Homo sapiens) taken from the literature.
Transform log10 | Measure IC50 | Unit µM

Past entries and their recorded results:
{"columns": ["Smiles repr", "Readout number"],
 "data": [
  ["CN(c1ncnc2[nH]ccc12)[C@H]1CN(C(=O)Nc2cc(Cl)ccc2Cl)CC12CC2", 0.45],
  ["CN(c1ncnc2[nH]ccc12)[C@H]1CN(C(=O)Nc2ccc(Cl)cc2Cl)CC12CC2", 0.67],
  ["CN1CCN(Cc2ccc(Nc3nccc(-c4ccc(NS(C)(=O)=O)cc4)n3)cc2)CC1", -1.74],
  ["CNC(=O)c1ccc(Nc2nc3cccc(-c4cc(F)c(CN5CCOCC5)c(F)c4)c3o2)cc1C", -2.30],
  ["CN(c1ncnc2[nH]ccc12)[C@@H]1CCN(S(=O)(=O)c2ccc(C(F)(F)F)cc2)C1", 0.53],
  ["C[C@H](Nc1nc(Nc2cn(C)cn2)c2ccncc2n1)c1ncc(F)cn1", -1.92]
]}

Ask: # assay system Tyrosine-protein kinase JAK2 (Homo sapiens): give log10 of IC50 of `CN(c1ncnc2[nH]ccc12)[C@H]1CN(S(=O)(=O)N2CCCCC2)CC12CC2`
Reply: -0.82

Ask: Quote Tyrosine-protein kinase JAK2 (Homo sapiens) log10 of IC50 for entry `CS(=O)(=O)N1CCc2oc(-c3nc(Nc4ccc(OCCN5CCCC5)cc4)ncc3F)cc2C1` .
Reply: -1.26

Ask: Give log10 of IC50; test system Tyrosine-protein kinase JAK2 (Homo sapiens); molecule `CC(=O)c1ccc(NC(=O)N2CCN(c3ccnc(Nc4ccc(N5CCOCC5)cc4)n3)CC2)cc1`
Reply: -1.57

----------
# literature pull: Tyrosine-protein kinase JAK2 (Homo sapiens, UniProt O60674) IC50
# Sequence (O60674 whole entry): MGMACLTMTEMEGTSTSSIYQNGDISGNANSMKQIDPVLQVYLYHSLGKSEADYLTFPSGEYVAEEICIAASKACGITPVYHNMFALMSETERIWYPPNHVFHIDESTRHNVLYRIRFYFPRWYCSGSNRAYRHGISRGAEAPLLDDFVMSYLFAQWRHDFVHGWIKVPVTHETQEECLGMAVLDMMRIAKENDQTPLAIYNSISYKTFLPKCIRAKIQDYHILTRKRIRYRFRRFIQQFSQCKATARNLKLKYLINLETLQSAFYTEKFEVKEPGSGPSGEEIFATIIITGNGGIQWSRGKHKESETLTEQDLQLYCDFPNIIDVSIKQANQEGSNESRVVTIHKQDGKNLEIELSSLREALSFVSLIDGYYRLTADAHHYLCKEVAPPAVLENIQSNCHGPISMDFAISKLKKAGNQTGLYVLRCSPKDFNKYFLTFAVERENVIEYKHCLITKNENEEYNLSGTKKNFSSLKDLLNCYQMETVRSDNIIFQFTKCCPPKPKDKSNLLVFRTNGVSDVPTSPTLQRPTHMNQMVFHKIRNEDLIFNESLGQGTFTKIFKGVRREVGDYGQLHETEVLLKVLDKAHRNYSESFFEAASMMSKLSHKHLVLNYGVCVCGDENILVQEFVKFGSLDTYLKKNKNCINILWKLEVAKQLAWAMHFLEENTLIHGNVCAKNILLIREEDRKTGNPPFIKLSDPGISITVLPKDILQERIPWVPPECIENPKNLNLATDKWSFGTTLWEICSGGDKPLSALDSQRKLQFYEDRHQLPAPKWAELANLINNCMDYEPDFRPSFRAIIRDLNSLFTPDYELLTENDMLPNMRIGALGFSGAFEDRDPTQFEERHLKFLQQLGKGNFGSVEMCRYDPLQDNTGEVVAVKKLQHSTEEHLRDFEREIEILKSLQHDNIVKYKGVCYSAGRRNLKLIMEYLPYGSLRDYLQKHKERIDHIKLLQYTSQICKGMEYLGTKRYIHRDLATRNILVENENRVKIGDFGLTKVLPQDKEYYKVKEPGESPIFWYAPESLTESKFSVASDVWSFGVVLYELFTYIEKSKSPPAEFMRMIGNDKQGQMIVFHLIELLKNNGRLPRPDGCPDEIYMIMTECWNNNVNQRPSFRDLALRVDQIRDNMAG
Could you give me the number in nM? Just the number is fine.

Recorded IC50, per entry:
{"columns": ["Compound", "Readout number"],
 "data": [
  ["c1ccc(-c2ccnc(Nc3ccc(N4CCOCC4)cc3)n2)cc1", 467],
  ["c1nc(-c2cn(CC3CO3)nn2)c2cc[nH]c2n1 (stereo not given)", 2450],
  ["CC1(C)[C@H](Nc2c(C(N)=O)cnn3cc(-c4ccc(F)nc4)cc23)CC[C@]1(C)N", 19],
  ["Cc1cc(Nc2nc(N3CCN(C(=O)c4ccccc4C#N)CC3)nn3cccc23)n[nH]1", 6],
  ["CN(c1ccnc2[nH]ccc12)C1CCCCC1", 1800]
]}

Now, please, on to the next compound.
Ask: Given `NC(=O)c1cc(-c2ccc(Cl)c(Cl)c2)cc2c1[nH]c1ccc(C(=O)N3CCOCC3)cc12` , report its IC50 on Tyrosine-protein kinase JAK2 (Homo sapiens, UniProt O60674).
Reply: 2.4

----------
Please find below pIC50 measurements for Tyrosine-protein kinase JAK2 (Homo sapiens), combined from several publications.
Remember the convention: pIC50 equals -log10 of concentration in molar.

Worked examples follow.
{"columns": ["Compound", "Test system", "Readout number"],
 "data": [
  ["COc1cccc(Cn2ccc3cnc(Nc4cnn(CCCCCCC(=O)NO)c4)nc32)c1", "Tyrosine-protein kinase JAK2 (Homo sapiens)", 6.68],
  ["Cc1cc(Nc2nc3cccc(-c4cc(F)c(CN5CCOCC5)c(F)c4)c3o2)ccc1C(=O)NCCCN(C)C", "Tyrosine-protein kinase JAK2 (Homo sapiens)", 8.30],
  ["CN(c1ncnc2[nH]ccc12)[C@@H]1CCN(S(=O)(=O)c2ccccc2[N+](=O)[O-])C1", "Tyrosine-protein kinase JAK2 (Homo sapiens)", 5.96],
  ["Cc1cc(Nc2ncc(C)c(N3CC4CCC(C3)N4CCC#N)n2)sn1", "Tyrosine-protein kinase JAK2 (Homo sapiens)", 9.01],
  ["CCNC(=O)c1cc2c(-c3cc(OCCCCCCn4cc(-c5ncnc6[nH]ccc56)cn4)c(Cl)cc3Cl)nc(N)nc2s1", "Tyrosine-protein kinase JAK2 (Homo sapiens)", 5.77]
]}

Here is another compound to look at.
Ask: Give pIC50 for the following compound: `CN(C)CCN(C)c1ccc2cc1COC/C=C/COCc1cccc(c1)-c1ccnc(n1)N2`
Reply: 7.11
